assay: qHTS Assay for Agonists of the Thyroid Stimulating Hormone Receptor; conditions: HEK293-CNG-TSHR cells (CNG channel as cAMP sensor), membrane potential dye, cAMP; measured here: parental cells max response;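 further: the control signal comes from parental cells without the receptor; % of control where 0% means no effect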
The campaign covered roughly 73,000 compounds. About 350 (0.48%) were called active. About 17% were inconclusive and are not listed. The entries come from a sample that favours actives as a whole.
// activation lookup, one value per entry
Just so you know, I need the unit written after the number.

Solved cases (4 shown):
C=CCN1C(=O)C2(C(C(=O)OCC)=C(N)Oc3c2c(=O)oc2ccccc32)c2ccccc21 (stereo not given) : -2.59%
Clc1ccc([C@@H]2C[C@H]3CC[C@@H]2N3)cn1 : 5.78%
CN1[C@H]2CC(OC(=O)[C@@H](CO)c3ccccc3)C[C@H]1[C@H]1O[C@H]12 (stereo not given in full) : 8.99%
Clc1cccc(Cl)c1Cl : 22.7%

Attention now turns to another entry.
Return reported activation; argument: `C/C(=C\C=C/[C@@H](C)C(=O)O)[C@H]1CN[C@H](C(=O)O)[C@@H]1CC(=O)O`
10.5%
